test system: Pseudomonas aeruginosa; test: Bactericidal activity against Pseudomonas aeruginosa ATCC 27853 by microdilution method; type: functional
Metric Name: MBC (µM)
Please reply with the bare figure in µM and do not write the unit itself.

[[record]]
smiles_repr = "CC1(C)[C@@H](O[C@H]2OC[C@H](O)[C@H](O)[C@H]2O[C@H]2O[C@H](CO)[C@@H](O)[C@H](O)[C@H]2OS(=O)(=O)O)CC[C@]2(C)[C@H]3CC=C4[C@@H]5C[C@@](C)(CO)CC[C@]5(C(=O)O[C@H]5O[C@H](CO)[C@@H](O)[C@H](O)[C@H]5O)CC[C@@]4(C)[C@]3(C)CC[C@@H]12"
measurement_target = "Pseudomonas aeruginosa"
value_reported = 744


Next, consider the following molecule.
input: Fill in the blank: the reported MBC of `COc1cc(/C=C/C(=O)O[C@H]2[C@H](O[C@H]3[C@@H](Oc4c(-c5ccc(O)c(O)c5)oc5cc(O)c(OC)c(O)c5c4=O)O[C@H](CO)[C@@H](O)[C@@H]3O)O[C@@H](C(=O)O)[C@@H](O)[C@@H]2O)ccc1O` is ____.
output: 473

Data origin, for the record: ChEMBL document CHEMBL4392886
